# Tested on: SK-MEL-5 melanoma
# Test summary: NCI tumour cell line growth inhibition, 48 h; in the data active = GI50 below about 0.43 µM; inactive = the rest
Just give me one of these, please: active, inactive

Solved entries:
[[record]]
compound = "CCOC(=O)Nc1nc2cc(OCC)ccc2s1"
label_value = "inactive"

[[record]]
compound = "COc1ccc(NC(=O)n2nc(/C=C\\c3ccc(O)c(OC)c3)cc2/C=C\\c2ccc(O)c(OC)c2)cc1"
label_value = "inactive"

[[record]]
compound = "COC(=O)c1ccc2c(c1)C(=O)c1c-2n(CCCN)c(=O)c2cc(OC)c(OC)cc12"
label_value = "inactive"

[[record]]
compound = "COC(=O)c1ccc(CN2C(=O)C(Cl)=C(Nc3ccc(OC)c(Cl)c3)C2=O)cc1"
label_value = "inactive"

[[record]]
compound = "COc1nc(C)cc2c(=O)n(-c3ccccc3)n(CC(O)CN3CCN(c4ccc(Cl)cc4)CC3)c(=O)c12 (stereo not given)"
label_value = "inactive"

[[record]]
compound = "CCCCN(CCCC)CCc1c(C)cc(C)c(CCN(CCCC)CCCC)c1O"
label_value = "inactive"

[[record]]
compound = "COc1cc2c3c(ncc2c(OC)c1OC)-c1cc2c(cc1C3)OCO2"
label_value = "inactive"

[[record]]
compound = "COC(=O)c1cc(-c2ccc(OC)cc2)[nH]c1N/N=C/c1c(Cl)cccc1Cl"
label_value = "active"


Hi team, can someone confirm the assay call for `CNCCNc1nc2ccccc2c2c(=O)c3cc(F)ccc3sc12` ? inactive

Test call, this compound: `CCCCN(CC)c1ncnc2ccc(Br)cc12` inactive

====

# Tested on: UACC-257 melanoma
# Test summary: NCI tumour cell line growth inhibition, 48 h; in the data active = GI50 below about 0.43 µM; inactive = the rest
Give your call using only these classes: active, inactive

Example entries begin here.
[[record]]
compound_structure = "Oc1c(CN2CCCC2)cc(CSCc2ccccc2)c2cccnc12"
label_value = "inactive"

[[record]]
compound_structure = "CC1(C)[C@@H](OC(N)=O)C=C[C@]2(CO)[C@H]3CC[C@]4(C)[C@@H](c5ccc(=O)oc5)[C@@H](Cl)C[C@]4(O)C3=CC[C@@H]12"
label_value = "active"


Called result for `CSc1nsc(S/C=C\C(=O)c2ccc(C)cc2)n1` inactive

Entry `COc1ccc(NC(=O)n2nc(/C=C\c3ccc(O)c(OC)c3)cc2/C=C\c2ccc(O)c(OC)c2)cc1` : call = ? inactive

====

Provide the recorded TGI for the entries that follow.
# System: SF-539 CNS
# Test summary: NCI tumour cell line growth inhibition, 48 h
Answers are plain numbers, in µM.

Use these answered entries as a reference point.
[[record]]
compound = "C[C@]12CC[C@@H](OC(=O)N(CCCl)N=O)C[C@@H]1CC[C@@H]1[C@@H]2CC[C@]2(C)C(=O)CC[C@@H]12"
endpoint_name = "TGI"
reported_result = 13.4

[[record]]
compound = "O=C(NCCCCCCO)c1cccc2cc3ccccc3nc12"
endpoint_name = "TGI"
reported_result = 33.7

[[record]]
compound = "COC(=O)/C=C1\\C(=O)C=C2[C@@H]3C[C@H]4C[C@H](CC[C@@]4(C)N21)C3(C)NC(C)=O (stereo partly specified)"
endpoint_name = "TGI"
reported_result = 9.54


Would you mind telling me what TGI value was observed for `COC(=O)/C=c1/c2ccccc2n2c1c1ccccc1[n+]2C` ? 14

====

# System: HS 578T breast
# Test summary: NCI tumour cell line growth inhibition, 48 h
Endpoint name: TGI (µM)
Give bare numbers, in µM.

Would you please look over these solved cases?
[[record]]
compound = "CCCCCCNC(=O)Oc1ccc(/C(=C(/C)Cc2ccc(OC)cc2)c2ccc(OCCN(C)C)cc2)cc1"
reported_result = 12.3

[[record]]
compound = "O=C1C(Cl)=C(c2ccc([N+](=O)[O-])cc2)C(=O)c2c(O)cccc21"
reported_result = 4.13

[[record]]
compound = "CC1(C)[C@@H](OC(N)=O)C=C[C@]2(CO)[C@H]3CC[C@]4(C)[C@@H](c5ccc(=O)oc5)[C@@H](Cl)C[C@]4(O)C3=CC[C@@H]12"
reported_result = 0.00837

[[record]]
compound = "COc1cccc(C23CCCC(C2)N(C)CC3OC(=O)c2ccccc2)c1OC (configuration not stated)"
reported_result = 78.6


Now look at this entry.
Which TGI is listed for `CCCCNC(=O)Oc1ccc(/C(=C(/CC)Cc2ccccc2)c2ccc(OCCN3CCCCCC3)cc2)cc1` ? 44.1
